Target: human GPR119 receptor (Homo sapiens)
Construct: host or cells: GeneBLAzer T-Rex GPR 119 CHO-K1 DA cells (CHO-K1)
Sequence (Q8TDV5 whole entry): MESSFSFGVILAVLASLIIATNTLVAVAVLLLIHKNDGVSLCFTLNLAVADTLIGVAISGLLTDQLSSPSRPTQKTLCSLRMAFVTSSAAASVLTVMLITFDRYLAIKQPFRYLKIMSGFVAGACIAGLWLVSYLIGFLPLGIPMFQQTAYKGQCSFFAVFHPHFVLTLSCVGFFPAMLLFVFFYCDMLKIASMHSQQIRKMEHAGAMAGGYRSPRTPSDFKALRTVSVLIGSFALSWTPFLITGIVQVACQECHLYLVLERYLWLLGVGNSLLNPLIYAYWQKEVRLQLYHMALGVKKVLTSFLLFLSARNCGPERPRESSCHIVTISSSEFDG
Experiment: Activity test for human GPR119 receptor (GeneBLAzer T-Rex GPR 119 CHO-K1 DA cells, fluorescence reporter)
Assay type: cell-based
Details: test compound conc. 10 μM; human GPR119 CHO-K1 reporter cells, 5 hours treatment; ratio to vehicle control well; read-out: % Activation
assay endpoint: activity at 10 µM (%)

chemical structure: NC(=O)[C@@H]1CCCN1C(=O)c1ccc(-c2ccc(OCC3CCN(CC4(C(F)(F)F)CC4)CC3)nc2)cc1
reported value: 379
--
chemical structure: CS(=O)(=O)c1ccc(-c2ccc(OCC3CCN(CC4(C(F)(F)F)CCC4)CC3)cc2)cc1
reported value: 376
--
chemical structure: CC(C)(F)CN1CCC(COc2cnc(-c3ccc(C(=O)N4CCC[C@H]4C(N)=O)cc3)cn2)CC1
reported value: 307
--
chemical structure: CC(C)(F)CN1CCC(COc2ccc(-c3ccc(C(=O)N4CCC[C@H]4C(N)=O)c(F)c3)cc2)CC1
reported value: 294
--
chemical structure: CC(C)(CN1CCC(COc2ccc(-c3ccc(C(=O)N4CCC[C@@H](O)C4)cc3)cn2)CC1)C(F)(F)F
reported value: 303
--
chemical structure: CCC(F)(CC)CN1CCC(COc2ccc(-c3ccc(C(=O)N4CCC[C@H]4C(N)=O)c(F)c3)cc2C#N)CC1
reported value: 374
--
chemical structure: CN(C)C(=O)c1ccc(-c2ccc(OCC3CCN(CC(C)(C)F)CC3)cc2)cc1
reported value: 289

Every entry's value here was drawn from patent US9944600B2.
